System: Hepatotoxicity
Assay: FDA HLAED, alkaline phosphatase increase
Settings: human
Recorded Metric: Alkaline Phosphatase Increase - Index Value
The reply should be a number, written without any unit.

Please review the entries below; each comes with its answer.
{"Compound": "CC[C@@H]1C(=O)OC[C@@H]1Cc1cncn1C", "Target Desc": "Hepatotoxicity", "Recorded Result": 0}
{"Compound": "Clc1ccc2c(c1)C(N1CCNCC1)=Nc1ccccc1O2", "Target Desc": "Hepatotoxicity", "Recorded Result": 0.7}

Here is the next item to consider.
Recorded Alkaline Phosphatase Increase - Index Value for CCC(=O)O[C@H]1[C@H](O[C@@H]2[C@@H](C)[C@H](O[C@H]3C[C@@](C)(OC)[C@@H](O)[C@H](C)O3)[C@@H](C)C(=O)O[C@H](CC)[C@@](C)(O)[C@H](O)[C@@H](C)C(=O)[C@H](C)C[C@@]2(C)O)O[C@H](C)C[C@@H]1N(C)C [ERYTHROMYCIN PROPIONATE] , please?
7.3

* * *

Test system: Hepatotoxicity
Assay: FDA HLAED, liver enzyme composite activity
Details: human
Below, each entry is listed alongside its reported Composite Activity - Marginal.
The reply should be a number, written without any unit.

{"Compound": "CCCCCCC(=O)O[C@H]1CC[C@H]2[C@@H]3CCC4=CC(=O)CC[C@]4(C)[C@H]3CC[C@]12C [TESTOSTERONE ENANTHATE]", "Target Desc": "Hepatotoxicity", "Composite Activity - Marginal": 0}

Recorded Composite Activity - Marginal for CC(=O)OCC(=O)[C@@]1(O)[C@@H](C)C[C@H]2[C@@H]3CCC4=CC(=O)C=C[C@]4(C)[C@@]3(F)[C@@H](O)C[C@@]21C [BETAMETHASONE ACETATE] , please?
0

Recorded Composite Activity - Marginal for Nc1ccn(C[C@@H](CO)OCP(=O)(O)O)c(=O)n1.O.O , please?
0

Recorded Composite Activity - Marginal for CC[C@H]1OC(=O)[C@H](C)[C@@H](O[C@H]2C[C@@](C)(OC)[C@@H](O)[C@H](C)O2)[C@H](C)[C@@H](O[C@@H]2O[C@H](C)C[C@H](N(C)C)[C@H]2O)[C@](C)(O)C[C@@H](C)CN(C)[C@H](C)[C@@H](O)[C@]1(C)O , please?
0

* * *

Tested on: Hepatotoxicity
Test: FDA HLAED, serum glutamic pyruvic transaminase (SGPT) increase
Conditions: human
Recorded Metric: SGPT Increase - Number of Reports

Please review the entries below; each comes with its answer.
{"Molecule": "CC(NCCc1ccc(O)cc1)C(O)c1ccc(O)cc1 (centres undefined)", "SGPT Increase - Number of Reports": ">= 4"}
{"Molecule": "COc1ccc(C(=O)Nc2ccccc2CCC2CCCCN2C)cc1 (centres undefined) [ENCAINIDE]", "SGPT Increase - Number of Reports": ">= 4"}
{"Molecule": "CC(C)(C)NC[C@H](O)COc1ccccc1C1CCCC1", "SGPT Increase - Number of Reports": "< 4"}
{"Molecule": "OC(Cn1cncn1)(Cn1cncn1)c1ccc(F)cc1F", "SGPT Increase - Number of Reports": ">= 4"}
{"Molecule": "N[C@@H](C(=O)N[C@@H]1C(=O)N2C(C(=O)O)=C(Cl)CC[C@H]12)c1ccccc1 [LORACARBEF ANHYDROUS]", "SGPT Increase - Number of Reports": "< 4"}
{"Molecule": "CC1(C)C(C=C(Cl)Cl)C1C(=O)OCc1cccc(Oc2ccccc2)c1 (centres undefined)", "SGPT Increase - Number of Reports": "< 4"}

Recorded SGPT Increase - Number of Reports for Nc1nc(F)nc2c1ncn2[C@@H]1O[C@H](CO)[C@@H](O)[C@@H]1O , please?
>= 4

Recorded SGPT Increase - Number of Reports for C=C1/C(=C\C=C2/CCC[C@]3(C)[C@@H]([C@H](C)/C=C/[C@@H](O)C4CC4)CC[C@@H]23)C[C@@H](O)C[C@@H]1O , please?
< 4

Recorded SGPT Increase - Number of Reports for Nc1c2c(nc3ccccc13)CCCC2 , please?
>= 4

* * *

Test system: Hepatotoxicity
Experiment: FDA HLAED, liver enzyme composite activity
Details: human
Numbered stars: 1 amine (or outer) side, 2 acyl side, 3 side chain; on linkers, the order of the positions; unused ones are H or OH. Bridge positions count the residues as written; N and C are the ends. Square brackets hold non-standard residues; d marks the D form. Peptide text beside a SMILES is read from it. I, II: the chains in the order shown. Actinocin(9to1) = Cc1c2oc3c(C)ccc(C(=O)[*:1])c3nc-2c(C(=O)[*:2])c(N)c1=O; NMeV = CN[C@H](C(=O)O)C(C)C; Sar = CNCC(=O)O
Recorded Metric: Composite Activity - Score

Please review the entries below; each comes with its answer.
{"Compound": "CC[C@H]1OC(=O)[C@H](C)[C@@H](O[C@H]2C[C@@](C)(OC)[C@@H](O)[C@H](C)O2)[C@H](C)[C@@H](O[C@@H]2O[C@H](C)C[C@H](N(C)C)[C@H]2O)[C@](C)(OC)C[C@@H](C)C(=O)[C@H](C)[C@@H](O)[C@]1(C)O", "Recorded Result": "Inactive"}
{"Compound": "C=C1CC[C@@]2(O)[C@H]3Cc4ccc(O)c5c4[C@@]2(CCN3CC2CC2)[C@H]1O5", "Recorded Result": "Inactive"}
{"Compound": "C=C1c2c(Cl)ccc(O)c2C(=O)C2=C(O)[C@]3(O)C(=O)C(C(N)=O)=C(O)[C@@H](N(C)C)[C@@H]3[C@@H](O)[C@H]12", "Recorded Result": "Inactive"}
{"Compound": "C[C@H]1C[C@H]2[C@@H]3CCC4=CC(=O)C=C[C@]4(C)[C@@]3(F)[C@@H](O)C[C@]2(C)[C@@]1(O)C(=O)CCl", "Recorded Result": "Inactive"}
{"Compound": "O=C(O)c1cc(/N=N/c2ccc(O)c(C(=O)O)c2)ccc1O", "Recorded Result": "Inactive"}

# returns recorded Composite Activity - Score (system: Hepatotoxicity) for CCOC(=O)[C@H](CCc1ccccc1)N[C@@H](C)C(=O)N1Cc2cc(OC)c(OC)cc2C[C@H]1C(=O)O
Inactive

# returns recorded Composite Activity - Score (system: Hepatotoxicity) for Cc1c2oc3c(C)ccc(C(=O)N[C@@H]4C(=O)N[C@H](C(C)C)C(=O)N5CCC[C@H]5C(=O)N(C)CC(=O)N(C)[C@@H](C(C)C)C(=O)O[C@@H]4C)c3nc-2c(C(=O)N[C@@H]2C(=O)N[C@H](C(C)C)C(=O)N3CCC[C@H]3C(=O)N(C)CC(=O)N(C)[C@@H](C(C)C)C(=O)O[C@@H]2C)c(N)c1=O [DACTINOMYCIN] (I: T[dV]P[Sar][NMeV] / II: T[dV]P[Sar][NMeV]; ester I:1-I:C, II:1-II:C; linker I:N-II:N via Actinocin(9to1))
Active

# returns recorded Composite Activity - Score (system: Hepatotoxicity) for CC(=O)O[C@H]1C[C@@H]2CC[C@@H]3[C@H](CC[C@@]4(C)[C@H]3C[C@H](N3CC[N+](C)(C)CC3)[C@@H]4OC(C)=O)[C@@]2(C)C[C@@H]1N1CC[N+](C)(C)CC1.[Br-].[Br-] [PIPECURONIUM BROMIDE]
Inactive

# returns recorded Composite Activity - Score (system: Hepatotoxicity) for CC1=C(/C=C/C(C)=C/C=C/C(C)=C/C(=O)O)C(C)(C)CCC1
Inactive

# returns recorded Composite Activity - Score (system: Hepatotoxicity) for COc1cc(NCc2ccc3nc(N)nc(N)c3c2C)cc(OC)c1OC [TRIMETREXATE]
Inactive

# returns recorded Composite Activity - Score (system: Hepatotoxicity) for O=C(O)P(=O)(O)O
Active

* * *

Test system: Hepatotoxicity
Assay: FDA HLAED, serum glutamic oxaloacetic transaminase (SGOT) increase
Conditions: human
Recorded Metric: SGOT Increase - Activity Score

Please review the entries below; each comes with its answer.
{"Molecule": "C[C@H]1C[C@H]2[C@@H]3CCC4=CC(=O)C=C[C@]4(C)[C@@]3(F)[C@@H](O)C[C@]2(C)[C@@]1(O)C(=O)CCl [CLOBETASOL]", "Target Desc": "Hepatotoxicity", "SGOT Increase - Activity Score": "Inactive"}
{"Molecule": "NCC1(CC(=O)O)CCCCC1 [GABAPENTIN]", "Target Desc": "Hepatotoxicity", "SGOT Increase - Activity Score": "Inactive"}
{"Molecule": "CC(C)(C)NC(=O)[C@@H]1C[C@@H]2CCCC[C@@H]2CN1C[C@@H](O)[C@H](Cc1ccccc1)NC(=O)[C@H](CC(N)=O)NC(=O)c1ccc2ccccc2n1", "Target Desc": "Hepatotoxicity", "SGOT Increase - Activity Score": "Inactive"}
{"Molecule": "CC(CCc1ccc(O)cc1)NCCc1ccc(O)c(O)c1 (stereo not drawn) [DOBUTAMINE]", "Target Desc": "Hepatotoxicity", "SGOT Increase - Activity Score": "Inactive"}
{"Molecule": "Cc1cccc(Nc2ccncc2S(=O)(=O)NC(=O)NC(C)C)c1 [TORSEMIDE]", "Target Desc": "Hepatotoxicity", "SGOT Increase - Activity Score": "Inactive"}
{"Molecule": "NC1=NC(=O)C(c2ccccc2)O1 (stereo not drawn) [PEMOLINE]", "Target Desc": "Hepatotoxicity", "SGOT Increase - Activity Score": "Active"}
{"Molecule": "CCCCCCCCCCC(=O)O[C@H]1CC[C@H]2[C@@H]3CCc4cc(O)ccc4[C@H]3CC[C@]12C [ESTRADIOL UNDECYLATE]", "Target Desc": "Hepatotoxicity", "SGOT Increase - Activity Score": "Inactive"}

Recorded SGOT Increase - Activity Score for COc1cc(C(=O)NS(=O)(=O)c2ccccc2C)ccc1Cc1cn(C)c2ccc(NC(=O)OC3CCCC3)cc12 [ZAFIRLUKAST] , please?
Active
